# target.desc: hASIC3 (Homo sapiens)
# Sequence (Q9UHC3 whole entry): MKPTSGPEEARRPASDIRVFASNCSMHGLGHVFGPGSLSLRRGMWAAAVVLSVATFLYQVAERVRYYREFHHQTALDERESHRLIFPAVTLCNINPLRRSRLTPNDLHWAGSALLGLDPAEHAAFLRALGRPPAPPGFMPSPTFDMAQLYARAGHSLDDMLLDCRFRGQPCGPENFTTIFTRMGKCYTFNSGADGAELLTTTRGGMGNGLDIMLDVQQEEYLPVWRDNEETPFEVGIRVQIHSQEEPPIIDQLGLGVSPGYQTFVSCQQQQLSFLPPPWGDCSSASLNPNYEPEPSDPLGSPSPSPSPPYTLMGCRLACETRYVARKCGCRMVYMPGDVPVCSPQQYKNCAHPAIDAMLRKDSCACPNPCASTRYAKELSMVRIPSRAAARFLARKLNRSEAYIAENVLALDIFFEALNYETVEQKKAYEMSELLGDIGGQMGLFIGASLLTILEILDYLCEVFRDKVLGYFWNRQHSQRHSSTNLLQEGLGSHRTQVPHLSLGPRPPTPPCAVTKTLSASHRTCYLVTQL
# assay.procedure: FlexStation assay on HEK293 cells expressing hASIC3
# Format: cell-based
# Design: expressed in transfected cells; host or cells: HEK293 cells
assay.endpoint: EC50

>>> result_value("Clc1ccc2c(N3CCNCC3)ccnc2c1")
"< 10 µM"

----------
# target.desc: hASIC3 (Homo sapiens)
# assay.procedure: FlexStation assay on HEK293 cells expressing hASIC3
# Assay type: cell-based
# Parameters: expressed in transfected cells; host or cells: HEK293 cells
# condition.label: Table H, cells marked (h3); HEK293; read-out: EC50 (μM) Flex/FLIPR (h3)
Recorded EC50 for the following molecules
assay.endpoint: EC50

>>> result_value("Cc1ccc(-c2nc(Nc3cccc(C(=O)O)c3)c3ccccc3n2)cc1")
"> 20 µM"
>>> result_value("Cc1cc(N2CCN(Cc3ccc4c(c3)OCO4)CC2)c2ccccc2n1")
"> 10 µM"
>>> result_value("Cc1cc(N2CCN(C(=O)OCc3ccccc3)CC2)c2ccccc2n1")
"> 20 µM"

----------
# target.desc: hASIC1a (Homo sapiens, UniProt P78348)
# Sequence (P78348 1-528): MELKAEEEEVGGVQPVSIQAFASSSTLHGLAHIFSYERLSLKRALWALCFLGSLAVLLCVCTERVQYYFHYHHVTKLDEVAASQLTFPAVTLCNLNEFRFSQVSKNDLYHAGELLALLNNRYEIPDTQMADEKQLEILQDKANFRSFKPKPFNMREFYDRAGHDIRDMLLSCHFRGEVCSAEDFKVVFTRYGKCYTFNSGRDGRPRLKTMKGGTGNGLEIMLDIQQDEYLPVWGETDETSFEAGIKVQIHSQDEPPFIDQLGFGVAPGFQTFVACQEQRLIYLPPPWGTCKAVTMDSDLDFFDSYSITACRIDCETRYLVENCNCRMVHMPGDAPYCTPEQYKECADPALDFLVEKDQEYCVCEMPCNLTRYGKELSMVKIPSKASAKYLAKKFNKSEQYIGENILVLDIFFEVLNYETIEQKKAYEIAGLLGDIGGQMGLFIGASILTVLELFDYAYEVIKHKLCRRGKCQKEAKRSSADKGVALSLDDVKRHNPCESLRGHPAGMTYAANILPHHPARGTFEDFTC
# assay.procedure: Two-electrode voltage clamp in Xenopus laevis oocytes expressing hASIC1a (OpusExpress)
# Format: cell-based
# Set-up: expressed in transfected cells; host or cells: Xenopus laevis oocytes, nuclear microinjection of cDNA (e.g. in pCDNA3)
# condition.label: Table H; read-out: IC50 (μM) Opus Express (h1a)
assay.endpoint: IC50 (µM)

>>> result_value("CCc1nc(N(C)C2CCN(Cc3ccccc3)CC2)c2ccccc2n1")
20.7
>>> result_value("Cc1cc(OC2CCN(Cc3ccccc3)CC2)c2cccc(F)c2n1")
1.25
>>> result_value("Cc1cc(OC2CCN(Cc3ccccc3)CC2)c2cc(Br)ccc2n1")
13.2
>>> result_value("FC(F)(F)c1cc(OC2CCN(Cc3ccccc3)CC2)c2ccccc2n1")
27.6
>>> result_value("Clc1ccc2c(N3CCNCC3)ccnc2c1")
43.7

----------
# target.desc: hASIC1a (Homo sapiens)
# Sequence (P78348 1-528): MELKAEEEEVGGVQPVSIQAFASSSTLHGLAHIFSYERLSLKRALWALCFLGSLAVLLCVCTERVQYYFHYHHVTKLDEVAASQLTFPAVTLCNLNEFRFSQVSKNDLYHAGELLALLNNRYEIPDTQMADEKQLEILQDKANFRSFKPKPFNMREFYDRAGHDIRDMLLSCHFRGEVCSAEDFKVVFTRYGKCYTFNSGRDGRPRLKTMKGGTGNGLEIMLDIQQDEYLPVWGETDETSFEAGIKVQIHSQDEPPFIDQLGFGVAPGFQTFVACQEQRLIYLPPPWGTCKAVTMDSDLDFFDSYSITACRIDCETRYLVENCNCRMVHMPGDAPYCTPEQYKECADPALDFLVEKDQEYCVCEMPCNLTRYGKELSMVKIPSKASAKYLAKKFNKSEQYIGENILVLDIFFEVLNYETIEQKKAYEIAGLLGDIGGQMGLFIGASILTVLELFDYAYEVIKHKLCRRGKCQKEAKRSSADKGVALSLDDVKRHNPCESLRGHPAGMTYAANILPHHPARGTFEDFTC
# assay.procedure: Two-electrode voltage clamp in Xenopus laevis oocytes expressing hASIC1a (OpusExpress)
# Format: cell-based
# Design: expressed in transfected cells; host or cells: Xenopus laevis oocytes, nuclear microinjection of cDNA (e.g. in pCDNA3)
# condition.label: OpusExpress (OX), Tables A-F; h1a printed in some cells only; read-out: Biological Data (IC50 uM) h1a (OX)
assay.endpoint: IC50

>>> result_value("O=C(O)c1cc(-c2ccc(Cl)cc2)nc2ccc(Cl)cc12")
"> 50 µM"
>>> result_value("Cc1cc(OC2CCN(Cc3ccccc3)CC2)c2ccccc2n1")
"2 to 10 µM"
>>> result_value("COc1ccc(CN2CCC(Oc3cc(C)nc4ccccc34)CC2)cc1")
"15 to 25 µM"
>>> result_value("FC(F)(F)c1cc(OC2CCN(Cc3ccccc3)CC2)c2ccccc2n1")
"20 to 35 µM"
>>> result_value("Cc1cc(OC2CCN(CCc3ccccc3)CC2)c2ccccc2n1")
"> 30 µM"
